- assay.explanation: NCI Yeast Anticancer Drug Screen. Data for the mec2-1 strain (AID 157)
- assay.conditions: S. cerevisiae mec2-1 strain, at 5.0 µM (retest, dose inferred, filed as 0.5), active compounds read high
This is part of a sample that, as a whole, favours compounds with a hit. Of some 79,000 tested, about 15% had one in any assay.
observed.property: growth inhibition (%)
Give your result in % as a bare value.

Illustrative cases are given below, each with its answer.
> print(dat)
                                   molecule  observed.property  assay.value
1  COc1ccc(CCN2CC(=O)N3CSCC3C2=O)cc1OC (stereo unspecified)  growth inhibition            5
2             O=C1C(=O)c2ccccc2C=C1C1CCCCC1  growth inhibition           19

### Prompt Determine its reported growth inhibition: CCCCC#CC(=O)OCCCCC
### Response 4

### Prompt Determine its reported growth inhibition: CCN(CC)CCNc1c(O)cc(C)c2sc3ccccc3c(=O)c12
### Response 10

### Prompt Determine its reported growth inhibition: C1CCC(CC2CCC(NC3=NCCO3)CC2)CC1 (stereo unspecified)
### Response -12

### Prompt Determine its reported growth inhibition: CC/C(=C(\CC)c1ccc(OCCN2CCOCC2)cc1)c1ccc(OCCN2CCOCC2)cc1
### Response 36

====

- assay.explanation: NCI Yeast Anticancer Drug Screen. Data for the mec2-1 strain (AID 157)
- assay.conditions: S. cerevisiae mec2-1 strain, at 50.0 µM (retest, dose inferred, filed as 5.0), active compounds read high
Compounds without any hit were thinned out: in the full panel of roughly 79,000, 15% have a hit.
Please use t whenever growth inhibition is not below 70%, and f whenever it is.

Solved entries:
> print(dat)
                             molecule  assigned.category
1       Cc1ccc2[nH]c3cc4ccncc4cc3c2c1                  t
2          CC(=O)Oc1ccc(C)cc1C(C)(C)C                  f
3  CCn1c2ccccc2c(=O)c2c(OC)ccc(OC)c21                  f

### Prompt Has Cc1ccc(SSCCCCS(=O)O)cc1 a recorded growth inhibition greater than or equal to 70%?
### Response t

### Prompt Has CCOC(=O)/C(Cl)=C(\C)Nc1nc2c(ccc3ccccc32)s1 a recorded growth inhibition greater than or equal to 70%?
### Response f

### Prompt Has CCCCC(Cc1ccccc1)(C(=O)O)c1ccccc1 (configuration not stated) a recorded growth inhibition greater than or equal to 70%?
### Response t

### Prompt Has NNc1c(Cl)cc(Cl)cc1Cl a recorded growth inhibition greater than or equal to 70%?
### Response t

====

# growth inhibition per entry
- assay.explanation: NCI Yeast Anticancer Drug Screen. Data for the mec2-1 strain (AID 157)
- assay.conditions: S. cerevisiae mec2-1 strain, at 50.0 µM (retest, dose inferred, filed as 5.0), active compounds read high
The panel holds about 79,000 compounds, 15% with a hit somewhere; the sample as a whole holds those more often. The source made the active and inactive calls. No stated cut-off is given here; in the data, active means growth inhibition above about 70%; inactive means the rest.

Illustrative cases are given below, each with its answer.
> print(dat)
                                   compound      assay.value
1  COC(=O)CC1C(=O)OCc2c1cc1n(c2=O)Cc2c-1nc1ccccc1c2OC (centres undefined)   15% (inactive)
2  CCCC1c2ccc(O)cc2CC1c1ccc(O)cc1 (centres undefined)     99% (active)
3                  CCS(=O)(=O)/C=C/c1ccncc1   -1% (inactive)
4  CCCCCCCCCCCC(=O)[O][Sn]([CH2]C)([CH2]C)[O]C(=O)CCCCCCCCCCC    2% (inactive)
5  C=CCNC(=O)NC(=O)CSC1=NNC2(C(=O)N1)c1ccccc1-c1ccccc12   65% (inactive)
6   Cc1[nH]nc(C(=O)N/N=C/c2cccs2)c1N=NN(C)C     98% (active)
7    CCc1ccccc1NC(=O)C(=O)CC(=O)c1ccc(Cl)s1  -40% (inactive)
8          CN(C)c1ccc(C=Nc2cnc3ccccc3c2)cc1  -13% (inactive)

### Prompt Determine its reported growth inhibition: C#CC(CC(C)C)(CC(C)C)OC(=O)Nc1ccccc1
### Response 97% (active)

### Prompt Determine its reported growth inhibition: CSCCC(NC(=O)C(CCSC)NS(=O)(=O)Cc1ccccc1)C(=O)O (centres undefined)
### Response -3% (inactive)

### Prompt Determine its reported growth inhibition: CCOC(=O)C1CCC(=O)O1 (centres undefined)
### Response 87% (active)
